# pIC50 listing for each entry below
Target: UniProtKB Q9BY41
Sequence (Q9BY41 whole entry): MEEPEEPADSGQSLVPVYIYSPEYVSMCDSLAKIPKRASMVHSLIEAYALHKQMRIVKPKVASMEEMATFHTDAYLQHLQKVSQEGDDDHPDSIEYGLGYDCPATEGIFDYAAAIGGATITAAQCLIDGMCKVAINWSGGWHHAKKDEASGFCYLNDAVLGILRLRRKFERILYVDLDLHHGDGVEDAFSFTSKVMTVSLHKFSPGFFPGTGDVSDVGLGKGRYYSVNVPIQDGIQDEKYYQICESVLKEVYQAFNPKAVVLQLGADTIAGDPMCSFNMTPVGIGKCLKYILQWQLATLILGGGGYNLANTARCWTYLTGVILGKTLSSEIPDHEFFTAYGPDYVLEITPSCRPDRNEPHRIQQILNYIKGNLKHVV
Assay: Two-step fluorescence assay for determination of IC50
Format: biochemical
pIC50: −log10 of the molar value.

[
  {
    "MOLECULE": "O=C(NO)C1CCCCC1C(=O)Nc1ccccc1 (stereo not shown) [RK216, reference compound]",
    "VALUE COMPARATOR": "<",
    "pIC50": 4.00
  },
  {
    "MOLECULE": "O=C(NO)C(F)(F)C(F)(F)C(F)(F)C(F)(F)C(F)(F)C(F)(F)C(=O)Nc1ccc2ccc3cccc4ccc1c2c34",
    "VALUE COMPARATOR": "=",
    "pIC50": 4.11
  },
  {
    "MOLECULE": "O=C(NO)C(F)(F)C(F)(F)C(F)(F)C(F)(F)C(F)(F)C(F)(F)C(=O)Nc1ccc(-c2cnnn2-c2ccccc2)cc1",
    "VALUE COMPARATOR": "<",
    "pIC50": 4.00
  },
  {
    "MOLECULE": "Cc1ccc(NC(=O)C(F)(F)C(F)(F)C(F)(F)C(F)(F)C(F)(F)C(F)(F)C(=O)NO)cc1",
    "VALUE COMPARATOR": "=",
    "pIC50": 4.06
  }
]
